Origin of the recorded values: ChEMBL document CHEMBL5143725

# tested-target: Transcriptional enhancer factor TEF-3 (Homo sapiens)
readout-kind: pKd
Lab note: report pKd as minus log10 of the concentration in molar units, number only.

# lookup: Cn1cc2c3cc(C(=O)O)ccc3n(-c3ccc(C(F)(F)F)cc3)c2n1 on Transcriptional enhancer factor TEF-3 (Homo sapiens), pKd = 5.27

----------
# tested-target: Transcriptional enhancer factor TEF-3 (Homo sapiens, UniProt Q15561)
# Sequence (Q15561 whole entry, the tested form may be a part): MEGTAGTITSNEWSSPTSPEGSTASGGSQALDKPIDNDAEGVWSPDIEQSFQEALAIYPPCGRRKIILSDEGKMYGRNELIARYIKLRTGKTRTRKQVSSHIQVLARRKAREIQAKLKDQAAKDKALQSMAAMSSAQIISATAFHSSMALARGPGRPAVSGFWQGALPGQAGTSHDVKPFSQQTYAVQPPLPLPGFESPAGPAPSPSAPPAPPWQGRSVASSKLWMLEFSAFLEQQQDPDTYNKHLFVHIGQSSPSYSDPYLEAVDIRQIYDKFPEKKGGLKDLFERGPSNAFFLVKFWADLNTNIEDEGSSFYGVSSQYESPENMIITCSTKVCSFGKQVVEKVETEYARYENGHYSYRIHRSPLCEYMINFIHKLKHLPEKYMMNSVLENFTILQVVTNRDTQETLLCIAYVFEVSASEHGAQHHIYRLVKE
# method-notes: Inhibition of pSF-CMV-P-FLAG tagged human TEAD4 palmitoylation transfected in HEK293 cells at 10 uM incubated for 6 hrs by Western blot analysis relative to control
# Assay type: cell-based
Would you please tag the item YES when its inhibition is 90% or above, and NO when it is below?

Sample answers from the record:
>>> df
                               smiles_input  class_label
0  C[C@H](NC(=O)c1ccc2c(-c3ccc(C(F)(F)F)cc3)cccc2c1)c1ccccn1          YES
1  Cn1cc2c3cc(C(=O)O)ccc3n(-c3ccc(C(F)(F)F)cc3)c2n1           NO
2  C[C@H](NC(=O)c1ccc2c(-c3ccc(C(F)(F)F)cc3)cccc2c1)c1cccc(N)n1          YES

Given the entry C[C@@H](NC(=O)c1ccc2c(-c3ccc(C(F)(F)F)cc3)cccc2c1)c1cccc(N)n1 , answer whether its inhibition meets or surpasses 90%.
NO

Given the entry CNS(=O)(=O)c1ccc(NCc2ccccc2)c(-c2cn(C)cn2)c1 , answer whether its inhibition meets or surpasses 90%.
NO

Given the entry CNS(=O)(=O)c1ccc(Nc2ccc(C(F)(F)F)cc2)c(-c2cn(C)cn2)c1 , answer whether its inhibition meets or surpasses 90%.
NO

----------
# tested-target: UniProt:Q15562
# Sequence (Q15562 whole entry): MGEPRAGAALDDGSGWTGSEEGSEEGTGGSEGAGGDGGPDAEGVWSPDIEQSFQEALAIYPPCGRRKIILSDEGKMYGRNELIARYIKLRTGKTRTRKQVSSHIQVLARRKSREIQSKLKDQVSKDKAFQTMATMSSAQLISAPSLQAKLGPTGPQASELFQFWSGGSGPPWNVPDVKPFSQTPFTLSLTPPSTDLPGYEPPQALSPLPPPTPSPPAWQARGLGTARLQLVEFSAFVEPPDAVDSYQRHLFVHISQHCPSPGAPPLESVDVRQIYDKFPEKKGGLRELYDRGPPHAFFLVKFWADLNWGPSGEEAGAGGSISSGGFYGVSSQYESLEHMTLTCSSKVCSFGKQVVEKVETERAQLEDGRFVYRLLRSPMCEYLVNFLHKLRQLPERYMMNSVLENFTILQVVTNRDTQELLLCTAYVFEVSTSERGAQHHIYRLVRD
# method-notes: Inhibition of pSF-CMV-P-FLAG tagged human TEAD2 palmitoylation transfected in HEK293 cells at 10 uM incubated for 6 hrs by Western blot analysis relative to control
# Type: cell-based
Listing of entries alongside the reported inhibition.
Kindly answer with a numeric value in %, unit omitted.

Please review the entries below; each comes with its answer.
                               smiles_input  value_measured
0  O=c1[nH]c(-c2nccnc2Nc2ccc(C(F)(F)F)cc2)no1              86
1  C[C@H](NC(=O)c1ccc2c(-c3ccc(C(F)(F)F)cc3)cccc2c1)c1cccc(N)n1              87
2  CNS(=O)(=O)c1ccc(NCc2ccccc2)c(-c2cn(C)cn2)c1              33
3  C[C@H](NC(=O)c1ccc2c(-c3ccc(C(F)(F)F)cc3)cccc2c1)c1ccccn1              87
4  CNS(=O)(=O)c1ccc(Nc2ccc(C(F)(F)F)cc2)c(-c2cn(C)cn2)c1              69
5  Cn1cc2c3cc(C(=O)O)ccc3n(-c3ccc(C(F)(F)F)cc3)c2n1              24
6  C[C@@H](NC(=O)c1ccc2c(-c3ccc(C(F)(F)F)cc3)cccc2c1)c1cccc(N)n1              51

Let us examine a further case.
Note to self: inhibition recorded for Cc1nccnc1-c1nn2c(=O)cc(-c3ccc(C4CCCCC4)cc3)[nH]c2c1C(=O)N1CC(CF)C1 was 86

----------
# tested-target: Transcriptional enhancer factor TEF-3 (Homo sapiens, UniProt Q15561)
# method-notes: Binding affinity to human TEAD4 (217 to 434 residues) expressed in Escherichia coli BL21 Star (DE3) assessed as change in melting temperature incubated for 2 hr by measuring tryptophane fluorescence by Nano Differential scanning fluorometry
Listing of entries alongside the reported ΔTm.
Kindly answer with a numeric value in °C, unit omitted.

Please review the entries below; each comes with its answer.
In [3]: df
Out[3]:
                               smiles_input  result_unit  value_measured
0  C[C@@H](NC(=O)c1ccc2c(-c3ccc(C(F)(F)F)cc3)cccc2c1)c1cccc(N)n1           °C             1.3
1  Cc1nccnc1-c1nn2c(=O)cc(-c3ccc(C4CCCCC4)cc3)[nH]c2c1C(=O)N1CC(CF)C1           °C            14.9
2  O=c1[nH]c(-c2nccnc2Nc2ccc(C(F)(F)F)cc2)no1           °C             9.8

Note to self: ΔTm recorded for C[C@H](NC(=O)c1ccc2c(-c3ccc(C(F)(F)F)cc3)cccc2c1)c1ccccn1 was -2.25

----------
# method-notes: Solubility of the compound in SGF buffer at pH 1.2
# Type: physicochemical
Listing of entries alongside the reported solubility.

>>> print(df.to_string())
                                   molecule  readout_kind  value_measured
0  Cn1cc2c3cc(C(=O)O)ccc3n(CC3CC(C(F)(F)F)C3)c2n1 (centres undefined)    solubility       < 1 µg/mL
1    Cn1cc2c3cc(C(=O)O)ccc3n(CC3CCCCC3)c2n1    solubility       < 1 µg/mL
2  Cn1cc2c3cc(C(=O)O)ccc3n(C3CCC(C(F)(F)F)CC3)c2n1 (centres undefined)    solubility       < 1 µg/mL

Let us examine a further case.
Note to self: solubility recorded for Cn1cc2c3cc(C(=O)O)ccc3n(CCC(C)(C)C(F)(F)F)c2n1 was < 1 µg/mL

----------
Listing of entries alongside the reported inhibition.
# tested-target: Transcriptional enhancer factor TEF-1 (Homo sapiens, UniProt P28347)
# Sequence (P28347 whole entry): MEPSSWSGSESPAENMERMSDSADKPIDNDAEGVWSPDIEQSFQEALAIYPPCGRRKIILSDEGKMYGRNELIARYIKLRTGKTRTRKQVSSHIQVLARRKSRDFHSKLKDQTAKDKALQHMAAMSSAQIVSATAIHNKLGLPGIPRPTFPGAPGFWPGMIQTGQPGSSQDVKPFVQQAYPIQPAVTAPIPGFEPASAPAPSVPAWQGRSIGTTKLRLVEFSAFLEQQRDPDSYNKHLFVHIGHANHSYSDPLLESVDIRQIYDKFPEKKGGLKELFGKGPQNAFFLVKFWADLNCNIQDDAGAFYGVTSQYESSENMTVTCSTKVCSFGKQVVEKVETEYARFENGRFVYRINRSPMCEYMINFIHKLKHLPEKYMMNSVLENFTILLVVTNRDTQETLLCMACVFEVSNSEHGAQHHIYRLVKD
# method-notes: Inhibition of pSF-CMV-P-FLAG tagged human TEAD1 palmitoylation transfected in HEK293 cells at 10 uM incubated for 6 hrs by Western blot analysis relative to control
# Format: cell-based
Kindly answer with a numeric value in %, unit omitted.

Please review the entries below; each comes with its answer.
>>> df
                               smiles_input  readout_kind  value_measured
0  Cc1nccnc1-c1nn2c(=O)cc(-c3ccc(C4CCCCC4)cc3)[nH]c2c1C(=O)N1CC(CF)C1    inhibition              84
1  C[C@H](NC(=O)c1ccc2c(-c3ccc(C(F)(F)F)cc3)cccc2c1)c1ccccn1    inhibition              93
2  O=c1[nH]c(-c2nccnc2Nc2ccc(C(F)(F)F)cc2)no1    inhibition              97

Note to self: inhibition recorded for CNS(=O)(=O)c1ccc(Nc2ccc(C(F)(F)F)cc2)c(-c2cn(C)cn2)c1 was 97

Note to self: inhibition recorded for C[C@H](NC(=O)c1ccc2c(-c3ccc(C(F)(F)F)cc3)cccc2c1)c1cccc(N)n1 was 92

----------
Listing of entries alongside the reported inhibition.
# tested-target: Transcriptional enhancer factor TEF-5 (Homo sapiens, UniProt Q99594)
# Sequence (Q99594 whole entry): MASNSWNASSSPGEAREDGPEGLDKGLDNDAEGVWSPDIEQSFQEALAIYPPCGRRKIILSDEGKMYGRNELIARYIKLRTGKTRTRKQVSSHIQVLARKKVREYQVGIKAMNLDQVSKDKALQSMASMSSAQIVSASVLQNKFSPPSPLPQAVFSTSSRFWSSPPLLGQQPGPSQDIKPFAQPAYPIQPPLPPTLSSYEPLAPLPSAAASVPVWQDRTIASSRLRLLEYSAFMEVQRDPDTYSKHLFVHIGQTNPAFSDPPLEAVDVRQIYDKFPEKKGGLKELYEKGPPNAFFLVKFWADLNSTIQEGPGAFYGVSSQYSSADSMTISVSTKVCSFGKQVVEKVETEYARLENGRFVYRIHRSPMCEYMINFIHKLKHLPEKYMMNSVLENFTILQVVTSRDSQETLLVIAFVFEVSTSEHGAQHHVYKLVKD
# method-notes: Inhibition of pSF-CMV-P-FLAG tagged human TEAD3 palmitoylation transfected in HEK293 cells at 10 uM incubated for 6 hrs by Western blot analysis relative to control
# Assay type: cell-based
Kindly answer with a numeric value in %, unit omitted.

Please review the entries below; each comes with its answer.
                               smiles_input  readout_kind  value_measured
0  Cn1cc2c3cc(C(=O)O)ccc3n(-c3ccc(C(F)(F)F)cc3)c2n1    inhibition              81
1  C[C@@H](NC(=O)c1ccc2c(-c3ccc(C(F)(F)F)cc3)cccc2c1)c1cccc(N)n1    inhibition              91
2  Cc1nccnc1-c1nn2c(=O)cc(-c3ccc(C4CCCCC4)cc3)[nH]c2c1C(=O)N1CC(CF)C1    inhibition              91
3  CNS(=O)(=O)c1ccc(NCc2ccccc2)c(-c2cn(C)cn2)c1    inhibition              10
4  C[C@H](NC(=O)c1ccc2c(-c3ccc(C(F)(F)F)cc3)cccc2c1)c1ccccn1    inhibition              93

Note to self: inhibition recorded for CNS(=O)(=O)c1ccc(Nc2ccc(C(F)(F)F)cc2)c(-c2cn(C)cn2)c1 was 29

Note to self: inhibition recorded for O=c1[nH]c(-c2nccnc2Nc2ccc(C(F)(F)F)cc2)no1 was 83

Note to self: inhibition recorded for C[C@H](NC(=O)c1ccc2c(-c3ccc(C(F)(F)F)cc3)cccc2c1)c1cccc(N)n1 was 91

----------
# method-notes: Microsomal stability in human microsomes measured per 10^6 cells
# Assay type: ADME, Microsome
readout-kind: Stability

In [3]: df
Out[3]:
                                   compound  readout_kind  value_measured
0  Cn1cc2c3cc(C(=O)O)ccc3n(C34CC(C(F)(F)F)(C3)C4)c2n1     Stability     < 10 µL/min
1  Cn1cc2c3cc(C(=O)O)ccc3n(CC3CC(C(F)(F)F)C3)c2n1 (stereo not drawn)     Stability     < 10 µL/min

Note to self: Stability recorded for Cn1cc2c3cc(C(=O)O)ccc3n(C3CC4(C3)CC(F)(F)C4)c2n1 was < 10 µL/min
